These measurements were taken from PubChem BioAssay (Tox21).

assay: qHTS assay to identify small molecule antagonists of the farnesoid-X-receptor (FXR) signaling pathway - cell viability counter screen (AID 743221); conditions: FXR-bla HEK293T viability, CellTiter-Glo luminescence, 16 h; series mostly up to 62.6 µM; also: nearly all actives have a fitted effect of over 50% in size
Inconclusive results are not listed. Calls of active or inactive are those of the source. Calls follow the shape of the dose curve; as a rule, active = well fitted cell-killing curve with a large enough effect in the repeat runs (not every such curve was filed as active); inconclusive = weak or mixed curves, or effect the other way; inactive = no such curve, though single readings can be large or run the other way.
Please answer using one outcome listed in active, inactive

Example results:
compound	answer-label
O.O.O.O.O.O.O.O=S(=O)([O-])[O-].[Co+2]	inactive
O.O.O.O=C([O-])[C@H]([O-])[C@@H]([O-])C(=O)[O-].O=C([O-])[C@H]([O-])[C@@H]([O-])C(=O)[O-].[K+].[K+].[Sb+3].[Sb+3]	inactive
CCC[CH2][Sn]([CH2]CCC)([CH2]CCC)[O][Sn]([CH2]CCC)([CH2]CCC)[CH2]CCC	active
CC(=O)O.CC(=O)O.CC(=O)O.CC(=O)O.CC(=O)O.CC(=O)O.CC(=O)O.O.O.[Cr].[Cr].[Cr]	inactive
COP(=S)(NC(C)C)Oc1ccc(C)cc1[N+](=O)[O-] (stereo not given)	inactive
CCN(CC)CCc1c[nH]c2ccccc12	inactive
O=P(Cl)(Cl)Cl	inactive
O=[N+]([O-])C(Br)Br	inactive

Hi, do you know how COc1ccc2c3c1O[C@H]1[C@H](O)CC[C@H]4[C@@H](C2)N(C)CC[C@@]341 came out in this test? inactive

Same thing, different compound: CN(C)CCc1c[nH]c2ccccc12 inactive

====

experiment: A CellTox Green Cytotoxicity Assay to monitor cytotoxicity in HepG2 cells - 24 hour (AID 1224878); settings: CellTox Green fluorescence; series mostly up to 76.8 µM; also: nearly all actives have a fitted effect of over 45% in size; also: potency is read from the fitted curve at half-maximal effect
Inconclusive results are not listed. The source made the active and inactive calls. Calls come from the whole dose curve; as a rule, active = well fitted activation curve with a large enough effect in the repeat runs; inconclusive = weak or mixed curves; inactive = flat fitted curve, though single readings scatter.
endpoint-name: Potency

Solved cases below.
molecule	Potency
FC(F)C(F)(F)OCC(Cn1cncn1)c1ccc(Cl)cc1Cl (stereo not drawn)	48.7 µM (active)
Cc1ccn2nc(S(=O)(=O)Nc3c(F)cccc3F)nc2n1	inactive
CNN	inactive
CC(=O)C(Cl)C(=O)N(C)C (stereo not drawn)	inactive
CO/N=C(/C1=NOCCO1)c1ccccc1Oc1ncnc(Oc2ccccc2Cl)c1F	inactive
[Cl][Hg][c]1ccccc1	3.47 µM (active)

With those in mind, consider the next molecule.
I am curious: what Potency value has been reported for Nc1ccccc1-c1ccccc1 ? inactive

====

experiment: A CellTox Green Cytotoxicity Assay to monitor cytotoxicity in HepG2 cells - 24 hour (AID 1224878); conditions: CellTox Green fluorescence; series mostly up to 76.8 µM; also: nearly all actives have a fitted effect of over 45% in size
Inconclusive results are not listed. Calls of active or inactive are those of the source. The call rests on the fitted dose curve; in most records, active means well fitted activation curve with a large enough effect in the repeat runs; inconclusive means weak or mixed curves; inactive means flat fitted curve, though single readings scatter.
Please answer using one outcome listed in YES = active, NO = inactive

Example results:
molecule	answer-label
O=S(=O)(NS(=O)(=O)C(F)(F)F)C(F)(F)F	YES
CCC[CH2][Sn]([CH2]CCC)([O]C(C)=O)[O]C(C)=O	YES

Hi, do you know how C[N+]1(C)[C@@H]2CC[C@H]1CC(OC(=O)C(CO)c1ccccc1)C2 (stereo partly specified) came out in this test? NO

Same thing, different molecule: CCOP(=S)(NC(C)C)Oc1ccccc1C(=O)OC(C)C (stereo unspecified) NO

Same thing, different molecule: CCCCn1cc[n+](C)c1 (tested in a mixture with another compound) NO

====

experiment: qHTS RealTime-Glo MT Cell Viability Assay in HEK293 cells - 0 hour (AID 1224880); conditions: RealTime-Glo luminescence; series mostly up to 76.8 µM; also: nearly all actives have a fitted effect of over 45% in size
Results filed as inconclusive are left out. The source made the active and inactive calls. Calls come from the whole dose curve; as a rule, active = well fitted cell-killing curve with a large enough effect in the repeat runs; inconclusive = weak or mixed curves, or effect the other way; inactive = flat fitted curve, though single readings scatter.
Please answer using one outcome listed in active, inactive

compound	answer-label
CC1(C)[C@H](/C=C2\CCSC2=O)[C@@H]1C(=O)OCc1coc(Cc2ccccc2)c1	inactive
CCCCN(CCCC)C(=S)[S-].CCCCN(CCCC)C(=S)[S-].[Ni+2]	inactive
CCC1(CC)C(=O)N=C(O)NC1=O	inactive

Hi, do you know how O=C(NC(=O)c1c(F)cccc1F)Nc1ccc(Oc2ccc(C(F)(F)F)cc2Cl)cc1F came out in this test? inactive

Same thing, different compound: Nc1ccc(Cl)cc1C(=O)c1ccccc1F inactive

Same thing, different compound: CSC(=O)c1c(C(F)F)nc(C(F)(F)F)c(C(=O)SC)c1CC(C)C inactive

Same thing, different compound: Nc1ccccc1-c1ccccc1 inactive

Same thing, different compound: C#CCC1=C(C)C(OC(=O)C2C(C=C(C)C)C2(C)C)CC1=O (configuration not stated) inactive

Same thing, different compound: N#Cc1sc2c(=O)c3ccccc3c(=O)c=2sc1C#N active

Same thing, different compound: OCC(Br)CBr (configuration not stated) inactive

Same thing, different compound: CC(C)N(C(=O)CCl)c1ccccc1 inactive

Same thing, different compound: c1ccc2nc(N3CCNCC3)ccc2c1 inactive

Same thing, different compound: O=[N+]([O-])c1ccc(Cl)c(Cl)c1Cl inactive

Same thing, different compound: CCNc1nc(NC(C)C(C)C)nc(SC)n1 (configuration not stated) inactive

Same thing, different compound: CCCCC(CC)COC(=O)c1ccccc1C(=O)OCC(CC)CCCC (configuration not stated) inactive

====

test: qHTS assay to identify small molecule antagonists of the farnesoid-X-receptor (FXR) signaling pathway - cell viability counter screen (AID 743221); conditions: FXR-bla HEK293T viability, CellTiter-Glo luminescence, 16 h; series mostly up to 62.6 µM; also: nearly all actives have a fitted effect of over 50% in size
Records with an inconclusive call do not appear. Active and inactive are the calls of the source. Calls come from the whole dose curve; as a rule, active = well fitted cell-killing curve with a large enough effect in the repeat runs (not every such curve was filed as active); inconclusive = weak or mixed curves, or effect the other way; inactive = no such curve, though single readings can be large or run the other way.
Please answer using one outcome listed in active, inactive

Example results:
compound	answer-label
CN=C=O	inactive
CCC(C)c1cccc(C(C)CC)c1O (stereo not drawn)	inactive
O.O.O.O.O.O.O=S(=O)([O-])[O-].[Ni+2]	inactive
C[C@@H]1CC2=CC(=O)CC[C@@H]2[C@H]2CC[C@@]3(C)[C@@H](CC[C@]3(C)O)[C@@H]21	inactive
Nc1ccccc1-c1ccccc1	inactive
O=C(Cl)c1ccccc1F	inactive
CC(C)Br	inactive
CSC(=O)c1c(C(F)F)nc(C(F)(F)F)c(C(=O)SC)c1CC(C)C	inactive

Hi, do you know how CCCCCCC[CH2][Sn]([Cl])([Cl])[CH2]CCCCCCC came out in this test? active

Same thing, different compound: CCCCN(CCCC)C(=S)[S-].CCCCN(CCCC)C(=S)[S-].[Ni+2] inactive

Same thing, different compound: CC(C)NCC(O)c1ccccc1Cl (stereo not drawn) inactive

Same thing, different compound: Nc1ccc(Cl)cc1C(=O)c1ccccc1F inactive

Same thing, different compound: CNC(=O)O/N=C(\C)C(C)S(C)(=O)=O (stereo not drawn) inactive

====

assay: qHTS assay to identify small molecule agonists of the estrogen receptor beta (ER-beta) signaling pathway - cell viability counter screen (AID 1259380); conditions: ER-beta-bla HEK293T viability, CellTiter-Glo luminescence, 16 h; series mostly up to 92.4 µM; also: nearly all actives have a fitted effect of over 30% in size
Results filed as inconclusive are left out. Calls of active or inactive are those of the source. The call rests on the fitted dose curve; in most records, active means well fitted cell-killing curve with a large enough effect in the repeat runs; inconclusive means weak or mixed curves, or effect the other way; inactive means flat fitted curve, though single readings scatter.
Please answer using one outcome listed in active, inactive

Example results:
compound	answer-label
CCCCn1cc[n+](C)c1 (tested in a mixture with another compound)	inactive
NC(=O)C(Cl)Cl	inactive
CC1CCCC1	inactive
c1ccc2nc(N3CCNCC3)ccc2c1	active
C[C@]12CC[C@H]3[C@@H](CCC4=CC(=O)CC[C@@H]43)[C@@H]1CC[C@@H]2OC(=O)CCc1ccco1	inactive

Hi, do you know how CCCCN(CCCC)C(=S)[S-].CCCCN(CCCC)C(=S)[S-].[Ni+2] came out in this test? inactive

====

assay: qHTS RealTime-Glo MT Cell Viability Assay in HepG2 cells - 8 hour (AID 1224873); conditions: RealTime-Glo luminescence; series mostly up to 76.8 µM; also: nearly all actives have a fitted effect of over 55% in size
Results filed as inconclusive are left out. The source made the active and inactive calls. The call rests on the fitted dose curve; in most records, active means well fitted cell-killing curve with a large enough effect in the repeat runs; inconclusive means weak or mixed curves; inactive means flat fitted curve, though single readings scatter.
Please answer using one outcome listed in active, inactive

Example results:
molecule	answer-label
CCCN	inactive
Cc1ccc2cc3c(ccc4ccccc43)c3c2c1CC3	inactive
O.O.O.O.O.O.O=S(=O)([O-])[O-].[Ni+2]	inactive
CC[N+]1(CC)CCC(OC(=O)C(O)(c2ccccc2)c2ccccc2)C1 (configuration not stated)	inactive
Oc1cc(Cl)cc(Cl)c1	inactive

Hi, do you know how N#CSCc1ccccc1 came out in this test? inactive

Same thing, different molecule: ClSC(Cl)(Cl)Cl inactive

Same thing, different molecule: CCOC(=O)Cc1ccccc1 inactive

Same thing, different molecule: Fc1ccc(C(OCCN2CCN(CCCc3ccccc3)CC2)c2ccc(F)cc2)cc1 active

Same thing, different molecule: CN1C2CCC(C)(C)C1CC(OC(=O)C(O)(c1cccs1)c1cccs1)C2 (configuration not stated) inactive

Same thing, different molecule: C[C@]12C/C(=C/O)C(=O)C[C@@H]1CC[C@@H]1[C@@H]2CC[C@@]2(C)[C@H]1CC[C@]2(C)O inactive

Same thing, different molecule: CSC(C)(C)/C=N/O inactive

Same thing, different molecule: Cc1c([N+](=O)[O-])cc2c(c1[N+](=O)[O-])C(C)(C)CC2(C)C inactive

Same thing, different molecule: COC(=O)c1ccccc1S(=O)(=O)NC(=O)Nc1nc(C)nc(OC)n1 inactive

Same thing, different molecule: COc1ccc2c3c1O[C@H]1[C@H](O)CC[C@H]4[C@@H](C2)N(C)CC[C@@]341 inactive

Same thing, different molecule: COCCC#N inactive

Same thing, different molecule: CC(C)Br inactive

Same thing, different molecule: O=c1[nH]c2cc(Cl)ccc2n1C1CCNCC1 inactive

Same thing, different molecule: N#Cc1ccc(N(CC(N)=O)CC(F)(F)F)cc1C(F)(F)F inactive

Same thing, different molecule: Cc1cnc2c(C(=O)O)c(Cl)ccc2c1 inactive

Same thing, different molecule: CN=C=O inactive
